Numbers sourced from the supplement of paper PMC10567573.

Attribute: protein stability index
B1: PLAGL1 (parent)
chain: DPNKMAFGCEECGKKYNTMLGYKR

Variants of: B1
Experiment: protein stability index of a GFP-peptide fusion (GPS, HEK-293T) (PSI 1-6); higher = more stable;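 note: lentivirally expressed fusions sorted by FACS into six bins by GFP to DsRed ratio, PSI derived from sequencing read proportions per bin multiplied by bin number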
Conditions: c terminus: a fixed tail appended
property.label: protein stability index

• Y22C = 3.69
• G13S = 2.98
• R24M = 2.78
• N17H = 2.91
• E11S = 2.5
• C9R = 4.08
• F7A = 3.27
• F7P = 2.57
• Y22K = 3.72
• K4V = 1.98
• C12S = 3.52
• C12H = 2.98
• A6I = 2.46
• G13M = 1.82
• K14P = 2.88
• Y22E = 3.26
• M19R = 2.99
• K4F = 1.61
• G21W = 1.95
• C9L = 3.9
• L20H = 3.08
• K14H = 1.99
• R24Y = 2.61
• Y16I = 2.13
• C9Q = 4.16
• N17I = 2.44
• L20C = 2.59
• G21T = 2.08
• C9P = 3.43
• Y22L = 3.15
• G21E = 3.33
• C12W = 2.93
• G21C = 3.09
• C9N = 4.01
• D1M = 2.26
• R24K = 4.02
• T18N = 2.3
• G8Y = 2.21
• A6T = 2.29
• Y22F = 1.92
• M5Y = 2.33
• D1C = 2.18
• G21N = 2.55
• R24F = 2.42
• L20W = 2.73
• C12M = 3.93
• G21K = 3.15
• P2K = 2.57
• K14G = 2.29
• E10W = 3.11
• C12G = 4.29
• K14W = 3.05
• F7N = 2.45
• T18C = 2.35
• F7Y = 2.53
• R24L = 2.05
• E10R = 1.64
• Y16E = 3.2
• K14L = 1.54
• P2H = 1.86
• P2E = 2.04
• Y22Q = 2.72
• E10P = 2.3
• T18F = 2.15
• T18D = 2.42
• C12Y = 3.92
• N17S = 1.66
• K15Q = 3.14
• P2S = 2.7
• C12K = 4.4
• P2W = 1.82
• C12T = 3.78
• G8K = 2.14
• G21Y = 2.06
• F7M = 2.58
• N17E = 2.31
• K15G = 2.3
• L20V = 2.7
• K14Y = 1.95
• A6W = 2.9
• E11I = 2.45
• E11T = 1.9
• D1P = 2.08
• K23W = 1.35
• K15L = 2.19
• C9T = 4.07
• C12R = 4.61
• M5T = 2.88
• Y16T = 3.51
• K15F = 1.81
• G13I = 2.49
